Target: human vWF A1 domain (SEQ ID NO 5) (Homo sapiens, UniProt P04275, T1381A)
Sequence (P04275 with tags, fused parts or gaps T1381A): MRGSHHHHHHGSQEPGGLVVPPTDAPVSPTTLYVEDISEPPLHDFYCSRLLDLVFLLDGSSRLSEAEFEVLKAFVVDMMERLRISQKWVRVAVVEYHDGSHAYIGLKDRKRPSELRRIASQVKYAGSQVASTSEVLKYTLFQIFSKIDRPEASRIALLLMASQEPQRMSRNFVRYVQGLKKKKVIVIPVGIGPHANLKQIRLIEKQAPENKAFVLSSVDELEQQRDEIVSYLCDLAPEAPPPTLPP
Test: 3-point dot blot screen, human vWF A1 domain
Type: binding
Details: DNA SELEX 1 aptamers; 100 nM human vWF A1 domain; ratio of fraction bound with target to without

molecule	Screen- Human/No Protein
AMX200.H8: DNA SELEX 1 aptamer clone (nucleic acid, DNA, backbone not given here, DNA SELEX 1 aptamer clone) DNA: CTACCTACGATCTGACTAGCTGAGTAGTCAGTAATTTTTTATTATGGTTTGGTGGGCCTGGCTTACTCTCATGTAGTTCC	1.86
AMX199.B7: DNA SELEX 1 aptamer clone (nucleic acid, DNA, backbone not given here, DNA SELEX 1 aptamer clone) DNA: CTACCTACGATCTGACTAGCGGGATGAGAGTGCTGGTGGATTGCTCAGGTCTGCTGGCTGCTTACTCTCATGTAGTTCC	4.08
AMX202.A3: DNA SELEX 1 aptamer clone (nucleic acid, DNA, backbone not given here, DNA SELEX 1 aptamer clone) DNA: CTACCTACGATCTGACTAGCGGAATGAGAGCGCTGATGGATTGCTCAGGTCTGCTGGCTGCTTACTCTCATGTAGTTCC	2.28
AMX202.H10: DNA SELEX 1 aptamer clone (nucleic acid, DNA, backbone and methylation of C not given here, DNA SELEX 1 aptamer clone) CTACCTACGATCTGACTAGCGGAATGAGAAGGCTGGTGGATTGCTCAGGTCTGCTGGCTGCTTACTCTCATGTAGTTCC	1.92
